target: T1, human GPC3-His protein (human, UniProt P51654 25-559); test: SPR, antibody captured on Protein A chip, human GPC3-His analyte;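 note: measured at 25 °C flow cell, human GPC3-His injected at five concentrations up to 200 nM, 240 s association, up to 600 s dissociation, double-referenced, fitted to Langmuir 1:1 model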
T1 construct: also called human GPC3 protein; not shown: His tag
attributeMeasured: kon (M⁻¹ s⁻¹)
Report only the number, with the unit M⁻¹ s⁻¹ understood.

// known answers, use as guide
binder: F1.62.9 (antibody, human IgG1, kappa, V domains shown, Human-murine chimeric antibody) VH: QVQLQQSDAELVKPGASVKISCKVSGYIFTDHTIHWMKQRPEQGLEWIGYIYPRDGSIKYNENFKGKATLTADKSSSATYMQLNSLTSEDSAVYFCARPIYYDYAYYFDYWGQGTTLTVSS VL: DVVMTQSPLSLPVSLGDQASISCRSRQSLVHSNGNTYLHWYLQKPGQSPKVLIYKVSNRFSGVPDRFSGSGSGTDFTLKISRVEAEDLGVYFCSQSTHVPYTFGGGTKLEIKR
unitsSymbol: M⁻¹ s⁻¹
kon: 28000
--
binder: F3.81.19 (antibody, human IgG1, kappa, V domains shown, Human-murine chimeric antibody) VH: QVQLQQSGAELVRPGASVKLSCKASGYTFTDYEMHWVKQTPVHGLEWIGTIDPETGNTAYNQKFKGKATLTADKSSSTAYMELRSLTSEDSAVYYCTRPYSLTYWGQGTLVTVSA VL: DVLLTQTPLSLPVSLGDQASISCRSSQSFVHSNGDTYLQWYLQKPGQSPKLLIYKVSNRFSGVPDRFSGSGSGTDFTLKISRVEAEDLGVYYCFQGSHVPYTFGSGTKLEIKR
unitsSymbol: M⁻¹ s⁻¹
kon: 424000

Field: next binder
Summary for this binder, F4.21.16 (antibody, human IgG1, kappa, V domains shown, Human-murine chimeric antibody) VH: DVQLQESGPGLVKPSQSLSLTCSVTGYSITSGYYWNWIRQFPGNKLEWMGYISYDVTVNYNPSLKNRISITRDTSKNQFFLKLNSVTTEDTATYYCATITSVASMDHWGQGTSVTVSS VL: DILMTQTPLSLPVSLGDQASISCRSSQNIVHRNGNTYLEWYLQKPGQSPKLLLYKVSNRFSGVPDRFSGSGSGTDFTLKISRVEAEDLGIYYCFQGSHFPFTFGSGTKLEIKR : kon is 40600
